Molecular target: CDK19/CycC (Homo sapiens, UniProt Q9BWU1)
Sequence (Q9BWU1 whole entry): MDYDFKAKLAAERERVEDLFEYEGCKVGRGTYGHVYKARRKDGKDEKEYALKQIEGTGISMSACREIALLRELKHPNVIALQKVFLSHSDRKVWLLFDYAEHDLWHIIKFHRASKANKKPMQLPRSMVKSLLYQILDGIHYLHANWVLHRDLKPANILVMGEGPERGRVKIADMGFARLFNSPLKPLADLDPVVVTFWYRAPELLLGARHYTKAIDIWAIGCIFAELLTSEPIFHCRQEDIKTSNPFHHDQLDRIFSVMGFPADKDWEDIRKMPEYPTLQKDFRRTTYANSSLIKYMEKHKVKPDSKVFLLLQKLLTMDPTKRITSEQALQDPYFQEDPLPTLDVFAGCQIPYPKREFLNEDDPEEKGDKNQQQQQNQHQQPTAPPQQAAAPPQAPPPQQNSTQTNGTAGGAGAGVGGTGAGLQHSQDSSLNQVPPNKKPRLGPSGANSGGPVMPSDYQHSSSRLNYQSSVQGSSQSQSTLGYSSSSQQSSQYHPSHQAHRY
Sequence (P24863 whole entry partner): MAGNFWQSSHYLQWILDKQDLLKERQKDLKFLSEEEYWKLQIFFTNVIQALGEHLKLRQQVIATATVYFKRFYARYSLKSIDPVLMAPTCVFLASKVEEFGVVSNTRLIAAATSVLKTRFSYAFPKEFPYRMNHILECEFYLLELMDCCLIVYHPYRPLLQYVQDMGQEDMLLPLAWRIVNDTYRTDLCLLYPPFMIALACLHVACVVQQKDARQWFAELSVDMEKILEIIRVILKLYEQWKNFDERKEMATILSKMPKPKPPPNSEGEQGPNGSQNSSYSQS
Assay: LanthaScreen europium kinase binding assay (FRET displacement), CDK19
Details: CDK19/CDK8 selectivity based on IC50 values

structure_notation	qualifier_sign	CDK19 Selectivity
COc1cnccc1Nc1cnc(Nc2ccc(CC(C)C)cc2)nc1	≥	6
Cc1cc(Nc2cnc(Nc3ccc(CC4CC4)cc3)nc2)ccn1	=	2
c1cc(Nc2cnc(Nc3ccc4c(c3)CCCC4)nc2)ccn1	=	2
CC(C)Cc1ccc(Nc2ncc(C(=O)c3ccncc3)cn2)cc1	≥	18

* * *

Biological target: CDK19/CycC (Homo sapiens, UniProt Q9BWU1)
Assay: LanthaScreen europium kinase binding assay (FRET displacement), CDK19
Details: his-tagged CDK19/CycC 5 nM, tracer 10 nM, 3 h incubation
pIC50: −log10 of the molar value.
Dear colleague, classification is by pIC50, with ranges listed here: Low (below 6), Medium (6 to below 7), High (7 or more)

structure_notation	assigned_class
Cc1cnccc1Nc1cnc(Nc2ccc(CC(C)C)cc2F)nc1	High
Fc1ccc(Nc2ccc(Oc3ccncc3)cn2)cc1	Low
Cc1cnccc1Nc1cnc(Nc2ccc(CC(C)C)cc2)nc1	High
CC(C)Cc1ccc(Nc2ncc(-c3ccccc3)cn2)cc1	Low
CC(C)Cc1ccc(Nc2ncc(C(=O)c3ccncc3)cn2)c(F)c1	High
CC(C)Cc1ccc(Nc2ncc(Cc3ccncc3)cn2)cc1	High
CC(C)Cc1ccc(Nc2ncc(Nc3ccncc3C#N)cn2)cc1	High
CC(C)Cc1cccc(Nc2ncc(Nc3ccncc3)cn2)c1	Low
O=C(c1ccncc1)c1ccc(Nc2ccc(F)cc2)nc1	Medium
CNC(=O)c1cc(Nc2cnc(Nc3ccc(CC(C)C)cc3)nc2)ccn1	Medium
CC(C)Cc1ccc(Nc2ccc(-c3ccc(C#N)cc3)cn2)cc1	Low
CC(C)Cc1ccc(Nc2ncc(C(=O)c3ccncc3)cn2)cc1	High
Cc1ccc(-c2cnc(Nc3ccc(CC(C)C)cc3)nc2)cc1	Low
CCCc1ccc(Nc2ncc(Nc3cc(C)nc(C)c3)cn2)cc1	Low
CC(C)Cc1ccc(Nc2ncc(-c3cc[nH]c(=O)c3)cn2)cc1	Low
Cc1cnccc1Nc1cnc(Nc2ccc(CC(C)C)cc2)nc1C	High
CC(C)Cc1ccc(Nc2ncc(C(=O)c3ccncc3OC3CCCC3)cn2)cc1	High
COc1cnccc1Nc1cnc(Nc2ccc(CC(C)C)cc2)nc1	High
CC(C)Cc1ccc(Nc2ncc(-c3ccc(=O)[nH]c3)cn2)cc1	Medium
